The entries below come with measured MIC values attached.
- Test system: Enterococcus faecalis 2041
- PROTOCOL TEXT: MIC, standard agar-dilution assay
- Type: cell-based

COMPOUND	MIC
CCCCCCCCN[C@@]1(C)C[C@H](O[C@H]2[C@H](Oc3c4cc5cc3Oc3ccc(cc3Cl)[C@@H](O)[C@@H](NC(=O)[C@@H](CC(C)C)NC)C(=O)N[C@@H](CC(N)=O)C(=O)N[C@H]5C(=O)N[C@H]3C(=O)N[C@H](C(=O)N[C@H](C(=O)O)c5cc(O)cc(O)c5-c5cc3ccc5O)[C@H](O[C@H]3C[C@](C)(N)[C@@H](O)[C@H](C)O3)c3ccc(cc3)O4)O[C@H](CO)[C@@H](O)[C@@H]2O)O[C@@H](C)[C@@H]1O	1 µg/mL
CNC(CC(C)C)C(=O)NC1C(=O)NC(CC(N)=O)C(=O)NC2C(=O)NC3C(=O)NC(C(=O)NC(C(=O)O)c4cc(O)cc(O)c4-c4cc3ccc4O)C(OC3CC(C)(N)C(O)C(C)O3)c3ccc(c(Cl)c3)Oc3cc2cc(c3OC2OC(CO)C(O)C(O)C2OC2CC(C)(NCc3ccccc3)C(O)C(C)O2)Oc2ccc(cc2Cl)C1O (stereo not drawn)	.5 µg/mL
CN[C@H](CC(C)C)C(=O)N[C@H]1C(=O)N[C@@H](CC(N)=O)C(=O)N[C@H]2C(=O)N[C@H]3C(=O)N[C@H](C(=O)N[C@H](C(=O)O)c4cc(O)cc(O)c4-c4cc3ccc4O)[C@H](O[C@H]3C[C@](C)(N)[C@@H](O)[C@H](C)O3)c3ccc(c(Cl)c3)Oc3cc2cc(c3O[C@@H]2O[C@H](CO)[C@@H](O)[C@H](O)[C@H]2O[C@H]2C[C@](C)(NCCc3ccccc3)[C@@H](O)[C@H](C)O2)Oc2ccc(cc2Cl)[C@H]1O	.5 µg/mL
